Where do the numbers come from? From patent US20230094463A1.

- target_system: T1, Human Galectin-3 protein (Acro Biosystems, GA3-H5129) (human, UniProt P17931 2-250)
- T1 construct: Bought protein; also called Gal3-ECD-His; Gal3-His; not shown: linker-spaced 6-histidine tag
- T1 sequence (P17931 2-250): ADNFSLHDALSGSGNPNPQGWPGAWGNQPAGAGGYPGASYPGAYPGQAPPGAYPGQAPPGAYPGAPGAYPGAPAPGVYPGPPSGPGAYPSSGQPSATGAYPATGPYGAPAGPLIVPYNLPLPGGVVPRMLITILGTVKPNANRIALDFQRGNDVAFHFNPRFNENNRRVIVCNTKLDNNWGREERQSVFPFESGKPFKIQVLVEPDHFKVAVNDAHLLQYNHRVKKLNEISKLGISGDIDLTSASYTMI
- method_summary: ELISA, blocking of INSR binding to coated Gal3
observation_type: IC50 (read off the curve)

Input line: Entry IMT006 (TB006) (antibody, V domains shown, anti-Gal3 antibody) VH: QVQLVQSGAEVKKPGASVKVSCKASGYSFTNYYMHWVRQAPGQRLEWMGWIYPGSGNTNYNEKFQGRVTITADTSASTAYMELSSLRSEDTAVYYCSTAPGGFDVWGQGTTVTVSS VL: DIVMTQTPLSLSVTPGQPASISCKSSKSLLHSDGITYLYWYLQKPGQSPQLLIYRMSNLASGVPDRFSGSGSGTDFTLKISRVEAEDVGVYYCAQMLEFPLTFGQGTKLEIK has what IC50 (read off the curve)?
Output line: ~0.7 µg/mL
